# procedureDetails: small-molecule microarray binders of probe aEGFR, primary screen, biochemical, biotinylated probe, 635/667 nm fluorescence (AID 1097);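 also: probe is a biotinylated anti-EGFR antibody binding compounds printed on slides; score combines fluorescence near 667 nm and signal to noise of each spot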
# experimentalParameters: higher = more signal
readoutKind: composite z-score

O=C1C2C=CC(C(O)C3CCCCC3)N(Nc3ccccc3F)C2C(=O)N1c1ccccc1 (configuration not stated) :: 0.239
CC(C)C[C@@H]1NC(=O)[C@H]2C[C@@H](C(=O)O)[C@@H](c3cccc(OCCO)c3)N2C1=O :: 0.0588
C=C(COC)C(=O)CC[C@H](OC(C)=O)c1ccccc1OCCO :: -0.262
COC(=O)[C@@]1(Cc2ccc(OC)cc2)[C@@H]2[C@@H](CC(=O)[C@H]2CC(=O)C(=O)N(C)C)CN1C(=O)c1ccccc1 :: 0.766
CC(CO)N1C(=O)[C@@H]2[C@H]3C(=O)OCC=C[C@H]3OC23C=CCN(c2ccc4ccccc4c2)C(=O)[C@@H]13 (some centres not stated) :: -0.301
CC[C@@H](O[Si](C#C[Si](C(C)C)(C(C)C)C(C)C)(C(C)C)C(C)C)c1cn(Cc2cccc(Cl)c2)nn1 :: -0.113
C=CCNC(=O)[C@H]1[C@@H]2C(=O)O[C@@H](c3ccccc3)[C@@H](c3ccccc3)N2[C@@H](c2ccc(O)cc2)[C@]12C(=O)Nc1ccc(C#CCC(C(=O)OC)C(=O)OC)cc12 :: -0.102

Attribution: PubChem BioAssay
